target: CD63 on cells (human) (UniProt P08962); assay: cell-based or functional assay
Sequence (P08962 2-238): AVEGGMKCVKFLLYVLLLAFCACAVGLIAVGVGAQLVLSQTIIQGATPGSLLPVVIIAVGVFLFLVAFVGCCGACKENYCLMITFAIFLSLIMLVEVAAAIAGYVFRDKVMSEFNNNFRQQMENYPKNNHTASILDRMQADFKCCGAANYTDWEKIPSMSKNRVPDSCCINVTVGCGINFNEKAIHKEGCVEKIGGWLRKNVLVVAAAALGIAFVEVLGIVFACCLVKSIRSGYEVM
Measurement Type: IC50 of cytotoxicity, SK-OV-3 cells (CellTiter-GLO, 4 days) (µg/mL)
# number only, unit µg/mL dropped from output

Example entries begin here.
Binder	Unit Spec	Reported
bsCD63xb12-Duo3 with CD63 variant Y46 (bispecific antibody, part only; not given: b12 control arm VH and VL, V domains shown, part only) VH: EVQLQQSGPELVKPGASVKMSCKASGHTFTSYVMHWVRQTPGQGLEWIGYITPYNDGTKYNEKFKGKATLTSDKSSSTAYMELSSLTSEDSAVYYCVGGDNYYYAMDYWGQGTSVTVSAA VL: NIMVTQSPSSLAVSAGEKVTMSCKSSQSVLYSSNQKNYLAWYQQKPGQSPKLLIYWASTRVSGVPDRFTGSGSGTDFTLTISRVQAEDLAVYYCHQYFSSFTFGSGTKLEIKRT	µg/mL	1.37
bsHER2xCD63-Duo3 with CD63 variant Y127 (bispecific antibody, part only; not given: HER2 arm (IgG1-153) VH and VL, V domains shown, part only) VH: EVQLQQSGPELVKPGASVKMSCKASGYTFTSYVMHWVRQTPGQGLEWIGYITPYNDGTKYNEKFKGKATLTSDKSSSTAYMELSSLTSEDSAVYYCVGGDNYYYAMDHWGQGTSVTVSAA VL: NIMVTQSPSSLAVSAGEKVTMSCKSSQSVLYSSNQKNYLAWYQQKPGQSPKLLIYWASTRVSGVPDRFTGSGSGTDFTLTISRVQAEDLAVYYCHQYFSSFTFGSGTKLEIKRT	µg/mL	0.061
bsCD63xb12-Duo3 (bispecific antibody, part only; not given: b12 control arm VH and VL, IgG1, V domains shown, part only) VH: EVQLQQSGPELVKPGASVKMSCKASGYTFTSYVMHWVRQTPGQGLEWIGYITPYNDGTKYNEKFKGKATLTSDKSSSTAYMELSSLTSEDSAVYYCVGGDNYYYAMDYWGQGTSVTVSAA VL: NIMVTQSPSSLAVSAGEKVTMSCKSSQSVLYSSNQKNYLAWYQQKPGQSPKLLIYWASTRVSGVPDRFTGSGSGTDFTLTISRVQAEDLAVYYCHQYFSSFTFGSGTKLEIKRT	µg/mL	0.815
bsHER2xCD63-Duo3 with CD63 variant P72H (bispecific antibody, part only; not given: HER2 arm (IgG1-153) VH and VL, V domains shown, part only) VH: EVQLQQSGPELVKPGASVKMSCKASGYTFTSYVMHWVRQTPGQGLEWIGYITHYNDGTKYNEKFKGKATLTSDKSSSTAYMELSSLTSEDSAVYYCVGGDNYYYAMDYWGQGTSVTVSAA VL: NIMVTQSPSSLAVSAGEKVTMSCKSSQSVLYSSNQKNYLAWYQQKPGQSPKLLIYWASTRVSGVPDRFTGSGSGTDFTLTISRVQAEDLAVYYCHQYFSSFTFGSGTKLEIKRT	µg/mL	0.028

// next entry
// returns reported IC50 of cytotoxicity, SK-OV-3 cells (CellTiter-GLO, 4 days) for input bsCD63xb12-Duo3 with CD63 variant LY51H (bispecific antibody, part only; not given: b12 control arm VH and VL, V domains shown, part only) VH: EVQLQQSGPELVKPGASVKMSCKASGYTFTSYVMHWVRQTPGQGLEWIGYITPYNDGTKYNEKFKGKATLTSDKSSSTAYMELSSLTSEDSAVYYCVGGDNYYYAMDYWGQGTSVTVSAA VL: NIMVTQSPSSLAVSAGEKVTMSCKSSQSVLHSSNQKNYLAWYQQKPGQSPKLLIYWASTRVSGVPDRFTGSGSGTDFTLTISRVQAEDLAVYYCHQYFSSFTFGSGTKLEIKRT
4.52
